pIC50 reference
assay: Inhibition of rat intestinal alpha-glucosidase after 5 mins by spectrophotometry
By convention, pIC50 is the negative base-10 log of a molar concentration.

[[record]]
compound_string = "CCOC(=O)c1cc2ccc(O)cc2oc1=O"
reading = 4.04

[[record]]
compound_string = "O=c1cc(CCl)c2ccc(O)cc2o1"
reading = 3.61

[[record]]
compound_string = "CCOC(=O)c1cc2cc(-c3ccccc3)ccc2oc1=O"
reading = 3.73

[[record]]
compound_string = "COc1ccc(-c2ccc3oc(=O)c(C#N)c(C)c3c2)cn1"
reading = 4.35

[[record]]
compound_string = "Cc1c(Cl)c(=O)oc2cc(O)ccc12"
reading = 3.89


Reported pIC50 ( CC(=O)c1cc2cc(-c3ccc(Cl)cc3)ccc2oc1=O ) = 4.02

Reported pIC50 ( CC(=O)c1cc2cc(-c3cccnc3)ccc2oc1=O ) = 4.24
